- experimentalProtocol: physchem
- testConditions: buffer, pH 7.4
- Description: Kinetic solubility of compound at pH 7.4 by high-throughput kinetic solubility assay
endpointName: solubility kinetic

As a guide, the following entries are already answered.
- COC(=O)CNC(=O)[C@H](Cc1ccccc1)NC(=O)c1cc2cc(Cl)ccc2[nH]1: 1.89 µM
- NC(=O)[C@@H](Cc1ccccc1)NC(=O)CNC(=O)c1cc2cc(Cl)ccc2[nH]1: 36.8 µM

Next compound, solubility kinetic to be filled in.
Reported solubility kinetic ( O=C(O)CNC(=O)[C@H](Cc1ccccc1)NC(=O)c1cc2cc(Cl)ccc2[nH]1 ) = 188 µM

====

- experimentalProtocol: Inhibition of recombinant human liver glycogen phosphorylase a expressed in baculovirus-infected Sf9 cells using glucose-1-phosphate as substrate in presence of 7.5 mM glucose
endpointName: pIC50
pIC50 here is simply -log10 of the concentration when that concentration is written in mol/L.

pIC50 for CN(C)C(=O)[C@H](O)[C@H](Cc1ccccc1)NC(=O)c1cc2cc(Cl)ccc2[nH]1 is 6.96

====

- experimentalProtocol: Lipophilicity, log D of the compound in 1-Octanol-phosphate buffer at pH 7.4
- Type: physicochemical
Quick reference for logD among some molecules
// response body must contain only the number

* O=C(O)CNC(=O)[C@H](Cc1ccccc1)NC(=O)c1cc2cc(Cl)ccc2[nH]1 | 0.72
* NC(=O)[C@@H](Cc1ccccc1)NC(=O)CNC(=O)c1cc2cc(Cl)ccc2[nH]1 | 3.32
* CN(C)CCCN1c2ccccc2Sc2ccc(Cl)cc21 [CHLORPROMAZINE] | 3.23

Okay, now this molecule:
For reference, reported logD for COC(=O)CNC(=O)[C@H](Cc1ccccc1)NC(=O)c1cc2cc(Cl)ccc2[nH]1 stands at 3.95

====

Recorded half-life values for a group of compounds are listed next.
- experimentalProtocol: Half life in mouse liver microsomes
- Type: ADME, Microsome
State the answer as a number, implicitly in min.

• COC(=O)CNC(=O)[C@H](Cc1ccccc1)NC(=O)c1cc2cc(Cl)ccc2[nH]1 = 15.4

Value of measured half-life for the entry O=C(O)Cc1ccccc1Nc1c(Cl)cccc1Cl [DICLOFENAC] : 27.1

====

- experimentalProtocol: Aqueous solubility of compound
- Type: physicochemical
- testConditions: buffer
endpointName: solubility

Item: CN(C)C(=O)[C@H](O)[C@H](Cc1ccccc1)NC(=O)c1cc2cc(Cl)ccc2[nH]1 | solubility: < 1000 µg/mL

====

- experimentalProtocol: Clearance in mouse liver microsomes
- Format: ADME, Microsome
endpointName: CLint scaled (L/h/kg)
Note: unit L/h/kg is implicit; provide only the numeric part.

- COC(=O)CNC(=O)[C@H](Cc1ccccc1)NC(=O)c1cc2cc(Cl)ccc2[nH]1: 21.4

Okay, now this compound:
Entry O=C(O)Cc1ccccc1Nc1c(Cl)cccc1Cl , CLint scaled reported as 12.2

====

- experimentalProtocol: Inhibition of rabbit muscle Glycogen phosphorylase measured phosphate release from glucose-1-phosphate
- Design: species or system Oryctolagus cuniculus
pIC50: −log10 of the molar value.
Classify as follows. Reported pIC50 greater than or equal to 7: T. Reported pIC50 below: F.

Worked examples follow.
- O=C(N[C@@H](Cc1ccc(O)cc1)c1nc2ccccc2[nH]1)c1cc2cc(Cl)ccc2[nH]1: F
- O=C(O)CNC(=O)[C@H](Cc1ccccc1)NC(=O)c1cc2cc(Cl)ccc2[nH]1: F
- NC(=O)[C@@H](Cc1ccccc1)NC(=O)CNC(=O)c1cc2cc(Cl)ccc2[nH]1: F

API: the following record is the query input.
Query block: Exam item: decide whether the reported pIC50 for COC(=O)CNC(=O)[C@H](Cc1ccccc1)NC(=O)c1cc2cc(Cl)ccc2[nH]1 is at least 7.
Result block: T
